target: porcine serum albumin (PSA) (Sus scrofa, UniProt P08835); construct: purchased Sigma-Aldrich; test: Fluorescence quenching of porcine serum albumin by mycotoxins; type: binding; settings: PSA 2 μmol/L, PBS pH 7.4, room temperature, λex = 295 nm, λem = 340 nm
Sequence (P08835 25-607): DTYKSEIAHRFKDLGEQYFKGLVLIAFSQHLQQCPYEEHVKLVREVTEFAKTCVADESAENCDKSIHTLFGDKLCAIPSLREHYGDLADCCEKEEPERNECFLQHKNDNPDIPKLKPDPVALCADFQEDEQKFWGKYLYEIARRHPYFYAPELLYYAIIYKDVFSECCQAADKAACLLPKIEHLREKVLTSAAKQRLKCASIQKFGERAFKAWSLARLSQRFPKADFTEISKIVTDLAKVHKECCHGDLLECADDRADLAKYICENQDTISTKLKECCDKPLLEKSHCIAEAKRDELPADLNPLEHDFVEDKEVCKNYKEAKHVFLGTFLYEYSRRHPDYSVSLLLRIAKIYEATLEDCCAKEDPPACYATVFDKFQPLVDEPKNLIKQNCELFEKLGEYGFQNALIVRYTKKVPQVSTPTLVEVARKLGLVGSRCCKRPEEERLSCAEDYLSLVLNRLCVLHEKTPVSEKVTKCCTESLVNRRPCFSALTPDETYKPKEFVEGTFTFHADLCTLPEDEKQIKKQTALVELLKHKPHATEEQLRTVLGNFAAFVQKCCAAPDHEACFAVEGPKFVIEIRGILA
Where a name gives a salt, the structure may show the parent alone.
parameter_measured: logKSV ± SEM (Stern-Volmer quenching constant) (L/mol)
Supply the numeric figure in L/mol, leaving out any unit text.

Exam item: // logKSV ± SEM (Stern-Volmer quenching constant) lookup, key: C[C@H]1CCCC(=O)CCC/C=C/c2cc(OS(=O)(=O)O)cc(O)c2C(=O)O1 [Z14S, Zearalenone-14-sulfate ammonium salt]
Marked response: 5.04

Exam item: Proceed to "C[C@H]1CCC[C@H](O)CCCCCc2cc(O)cc(O)c2C(=O)O1"
Marked response: 4.30

Exam item: Proceed to "C[C@H]1CCC[C@@H](O)CCCCCc2cc(O)cc(O)c2C(=O)O1"
Marked response: 4.13

Exam item: Proceed to "C[C@H]1CCCC(=O)CCCCCc2cc(O)cc(O)c2C(=O)O1"
Marked response: 3.97

====

Molecular target: rat serum albumin (RSA) (Rattus norvegicus, UniProt P02770)
Construct: purchased Sigma-Aldrich
Sequence (P02770 25-608): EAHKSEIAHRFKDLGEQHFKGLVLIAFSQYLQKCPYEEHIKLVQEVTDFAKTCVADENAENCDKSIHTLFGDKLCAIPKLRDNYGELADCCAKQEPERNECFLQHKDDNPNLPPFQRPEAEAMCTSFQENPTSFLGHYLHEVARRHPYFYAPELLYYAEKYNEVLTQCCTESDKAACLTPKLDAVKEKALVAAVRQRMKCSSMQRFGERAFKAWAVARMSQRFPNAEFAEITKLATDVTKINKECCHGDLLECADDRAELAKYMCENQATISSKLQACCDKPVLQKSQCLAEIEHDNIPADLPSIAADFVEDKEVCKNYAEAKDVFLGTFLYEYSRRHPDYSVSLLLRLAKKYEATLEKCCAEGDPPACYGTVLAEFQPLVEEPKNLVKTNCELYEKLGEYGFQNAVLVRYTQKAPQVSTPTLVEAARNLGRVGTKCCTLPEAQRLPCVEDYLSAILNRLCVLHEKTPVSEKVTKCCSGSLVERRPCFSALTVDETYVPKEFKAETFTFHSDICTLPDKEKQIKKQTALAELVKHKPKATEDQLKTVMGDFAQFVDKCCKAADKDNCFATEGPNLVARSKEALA
Assay: Fluorescence quenching of rat serum albumin by mycotoxins
Assay type: binding
Details: RSA 2 μmol/L, PBS pH 7.4, room temperature, λex = 295 nm, λem = 340 nm
Procedure: Fluorescence spectroscopic measurements were carried out employing a Hitachi F-4500 fluorescence spectrophotometer (Hitachi, Tokyo, Japan) to investigate the effect of increasing mycotoxin concentrations on the fluorescence signal of albumins as well as on the emission spectrum of warfarin-HSA complex. […] For spectral correction of fluorescence emission intensities, absorption spectra of mycotoxins were also recorded applying a Jasco-V730 spectrophotometer (Jasco, Tokyo, Japan). […]
Where a name gives a salt, the structure may show the parent alone.
parameter_measured: logKSV ± SEM (Stern-Volmer quenching constant)
Please format your answer as a value with the unit trailing.

Exam item: // logKSV ± SEM (Stern-Volmer quenching constant) lookup, key: C[C@H]1CCCC(=O)CCC/C=C/c2cc(OS(=O)(=O)O)cc(O)c2C(=O)O1 [Z14S, Zearalenone-14-sulfate ammonium salt]
Marked response: 5.70 ± 0.02 L/mol

Exam item: Proceed to "C[C@H]1CCC[C@H](O)CCCCCc2cc(O)cc(O)c2C(=O)O1"
Marked response: 5.21 ± 0.00 L/mol

Exam item: Proceed to "C[C@H]1CCCC(=O)CCCCCc2cc(O)cc(O)c2C(=O)O1"
Marked response: 5.00 ± 0.03 L/mol

Exam item: Proceed to "C[C@H]1CCC[C@@H](O)CCCCCc2cc(O)cc(O)c2C(=O)O1"
Marked response: 5.43 ± 0.01 L/mol

====

biological target: bovine serum albumin (BSA) (Bos taurus); construct: purchased Sigma-Aldrich; test: Fluorescence quenching of bovine serum albumin by mycotoxins; assay type: binding; details: BSA 2 μmol/L, PBS pH 7.4, room temperature, λex = 295 nm, λem = 340 nm
Sequence (P02769 25-607): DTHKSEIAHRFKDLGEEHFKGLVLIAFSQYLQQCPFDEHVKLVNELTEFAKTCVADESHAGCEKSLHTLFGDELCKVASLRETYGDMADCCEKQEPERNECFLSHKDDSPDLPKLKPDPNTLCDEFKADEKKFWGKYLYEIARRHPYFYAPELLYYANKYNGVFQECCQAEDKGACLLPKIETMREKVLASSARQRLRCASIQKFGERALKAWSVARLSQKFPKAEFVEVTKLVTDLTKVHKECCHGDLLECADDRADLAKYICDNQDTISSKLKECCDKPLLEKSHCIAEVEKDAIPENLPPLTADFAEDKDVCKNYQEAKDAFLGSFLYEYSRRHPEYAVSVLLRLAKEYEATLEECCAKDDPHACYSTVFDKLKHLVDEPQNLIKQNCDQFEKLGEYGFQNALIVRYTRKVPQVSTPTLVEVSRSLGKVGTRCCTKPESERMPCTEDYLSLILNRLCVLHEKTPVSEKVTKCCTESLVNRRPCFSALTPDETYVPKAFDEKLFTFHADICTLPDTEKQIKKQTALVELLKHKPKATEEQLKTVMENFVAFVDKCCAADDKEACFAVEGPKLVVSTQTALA
Structures can show the parent of a compound that is named as a salt.
parameter_measured: logKSV ± SEM (Stern-Volmer quenching constant) (L/mol)
Supply the numeric figure in L/mol, leaving out any unit text.

Exam item: bovine serum albumin (BSA) (Bos taurus) / logKSV ± SEM (Stern-Volmer quenching constant) / "C[C@H]1CCCC(=O)CCCCCc2cc(O)cc(O)c2C(=O)O1" : value?
Marked response: 4.41

Exam item: Proceed to "C[C@H]1CCC[C@H](O)CCCCCc2cc(O)cc(O)c2C(=O)O1"
Marked response: 4.20

Exam item: Proceed to "C[C@H]1CCC[C@@H](O)CCCCCc2cc(O)cc(O)c2C(=O)O1"
Marked response: 3.88

Exam item: Proceed to C[C@H]1CCCC(=O)CCC/C=C/c2cc(OS(=O)(=O)O)cc(O)c2C(=O)O1 [Z14S, Zearalenone-14-sulfate ammonium salt]
Marked response: 5.32

Every entry's value here was drawn from paper PMC7536148.
